- Test system: Plasmodium falciparum
- method_summary: GSK_TCMDC: Inhibition of Plasmodium falciparum 3D7 in whole red blood cells, using parasite LDH activity as an index of growth. Test compounds present at 2uM
- Assay type: functional
Field: Inhibition. Provide a value for each of the compounds that follow.
Give your result in % as a bare value.

Record request: Inhibition value, item `Cc1nc(-c2nc(NCc3ccccn3)ncc2-c2ccsc2)sc1C` 92

Same question, `COc1ccc(-c2cccc(NC(=O)c3ccccc3)c2)cc1CN1CCCN(C)CC1.O=C(O)C(F)(F)F` this time 98

Another compound to check: `COc1ccc2c(NN=Cc3ccc(Cl)cc3)ccnc2c1` 100

Now consider `N#Cc1ccc(Sc2nnc(-c3ccccc3Cl)n2CC2CCCCC2)cc1[N+](=O)[O-]` and answer again. 85

Would you mind doing `CCOc1ccc(N(CC)S(=O)(=O)c2cc(Br)cc3c2N(C(=O)C2CC2)CC3)cc1` as well? 99

Now this one: `Br.C=CCc1cc(C)ccc1OCCCON1C(N)=NC(N)=NC1(C)C` 96

Please give the result for `Cc1nc(C)c(-c2ccc(Oc3cc(Cl)cc(Cl)c3)cc2)c(O)c1Cl` too. 96

How about Cc1ccc(C)c(NC(=O)CC2C(=O)N(c3ccccc3)C(=S)N2Cc2ccco2)c1 (stereo not drawn) ? 100

---

For each record, write down the corresponding Inhibition.
- Test system: Plasmodium falciparum
- method_summary: GSK_TCMDC: Inhibition of Plasmodium falciparum 3D7 in whole red blood cells, using parasite LDH activity as an index of growth. Test compounds present at 2uM
- Type: functional
// return numeric value only (unit: %, not printed)

Dear colleague, I am looking for the recorded Inhibition of the following compound: `CC(C)Oc1cc2c(cc1NS(=O)(=O)c1ccc(-c3ccc(Cl)cc3)cc1F)CCN(C)CC2.Cl` 88

Next compound up: `COCc1cc(C)nc2sc(C(=O)Nc3cc(C(C)(C)C)ccc3O)c(N)c12` 85

Next compound up: `O=C(Nc1ccc(Cn2ncc(N3CCCNCC3)c(Cl)c2=O)cc1)Nc1ccc(OCc2ccccc2)cc1.O=C(O)C(F)(F)F` 90

Could you do the same for `COc1ccc(-c2ccc(CNCc3ccsc3)cc2)cc1S(=O)(=O)NCCN1CCCC1.O=C(O)C(F)(F)F` , please? 94

And for `Cc1cc(C(F)(F)F)n2nc(C(=O)N(Cc3cncn3Cc3ccccc3F)CC3CC3)cc2n1` ? 100

Now consider `Cc1sc(N2CCCCC2)nc1C(=O)Nc1ccc(F)cc1C(F)(F)F.O=C(O)C(F)(F)F` . 86

Could you do the same for `Cc1cc(N)nc2ccc(-c3ccc(CCN)cc3)cc12` , please? 100

One more compound: `O=C(Nc1ccc(Cn2ncc(N3CCCNCC3)c(Cl)c2=O)cc1)Nc1ccc(-c2ccccc2)cc1` 93

Then `CN(C)CCNC(=O)N1CCCN(c2ncnc3cc(-c4ccccc4)sc23)CC1.O=C(O)C(F)(F)F` ? 96

Thanks! And `Cc1ccc2[nH]c(-c3cc(-c4cccc(CCN5CCOCC5)c4)cnc3N)nc2c1.O=C(O)C(F)(F)F` ? 100

Another compound to look at: `CCc1ccc(NC(=O)N(CCCN2CCN(C)CC2)Cc2csc(-c3ccc(CNCc4ccccc4)cc3)n2)cc1.O=C(O)C(F)(F)F` 99

---

- Tested on: Plasmodium falciparum
- method_summary: GSK_TCMDC: Inhibition of Plasmodium falciparum Dd2 in whole red blood cells, using parasite LDH activity as an index of growth. Test compounds present at 2uM
- Assay type: functional
parameter: Inhibition
Show the value, then the unit it is measured in.

Inhibition for O=C(/C=C/c1ccc(Cl)c(Cl)c1)NC1CCC(CN2CCC(c3coc4ccccc34)CC2)CC1 (stereo not given) ? 41%

Also need CC(=O)N(C)C1CCN(Cc2ccc(-c3ccc(-c4nc5cc(F)ccc5[nH]4)s3)cc2)C1.O=C(O)C(F)(F)F (stereo not given) , thanks. 22%

What would you report for `O=C(N[C@@H](Cc1ccccc1)CN1CCC(Oc2ccc(F)cc2)CC1)c1ccc(OCCCN2CCCCC2)cc1.O=C(O)C(F)(F)F` ? 92%

Then this compound: `CN1CCN(Cc2ccc(-c3ccc4c(Nc5cc(O)c(Cl)cc5F)ccnc4c3)o2)CC1` 99%

// same read-out, input: Cc1ccc(S(=O)(=O)NC2CCN(c3ccnc4cc(Cl)ccc34)C2)cc1.O=C(O)C(F)(F)F (stereo not given) 90%

---

- Test system: Plasmodium falciparum
- method_summary: GSK_TCMDC: Inhibition of Plasmodium falciparum Dd2 in whole red blood cells, using parasite LDH activity as an index of growth. Test compounds present at 2uM
- Assay type: functional
parameter: Inhibition

Request the reported Inhibition associated with `CN1CCN(Cc2cc(NC(=O)c3ccc(-c4ccc(Cl)cc4Cl)cc3)ccc2-c2ccccc2)CC1` 21%

Next molecule up: `O=C(NCCCN1CCOCC1)c1cccc(Nc2nccc(Nc3ccc(Oc4ccccc4)cc3)n2)c1` 22%

Note, next up: `C=Cc1sc(CNCCCNc2cc(=O)c3ccccc3[nH]2)c(C)c1Br` 35%

Another molecule to look at: `O=C(NCCN1CCOCC1)c1ccc(-c2ccc(CNCCCc3ccccc3)cc2)nc1.O=C(O)C(F)(F)F` 10%

---

Assignment: determine reported Inhibition for the given compounds.
- Test system: Plasmodium falciparum
- method_summary: GSK_TCMDC: Inhibition of Plasmodium falciparum 3D7 in whole red blood cells, using parasite LDH activity as an index of growth. Test compounds present at 2uM
- Type: functional
Entry rule: numbers only, all in %.

Consider the compound `CN1CCN(Cc2cccc(-c3ccc4c(Nc5ccc(Oc6cccnc6)cc5)ccnc4c3)c2)CC1` and give its measured Inhibition. 100

What do you have for `CC(C)(C)c1ccc(NC(=O)c2cccc(CN3CCCN(Cc4cccc(O)c4)CC3)c2)cc1.O=C(O)C(F)(F)F` ? 100

Also CN1CCN(C(C(=O)NCc2cc(Cl)cc(Cl)c2)c2ccc(NC(=O)Nc3ccccc3)cc2)CC1.O=C(O)C(F)(F)F (stereo not drawn) ? 98

Repeat for the following compound: `Cc1ccc(-c2nc3ccccc3o2)cc1NCc1cc(Cc2ccccc2)ccc1O` 82

Then this compound: `Cc1[nH]c2ccccc2c1C(=O)CSc1nn(-c2ccccc2)c(=S)s1` 100

Now the same for `O=C(Nc1cccc([N+](=O)[O-])c1)Nc1cccc(C(F)(F)F)c1` 92

Query NC1CCN(Cc2cccc(-c3cccc(-c4nc5ccccc5[nH]4)c3)c2)C1.O=C(O)C(F)(F)F (stereo not drawn) next 100

Then this compound: Cc1cc(F)ccc1-c1nc(NCC(O)CNCCc2ccccc2)nc2c1ccc(=O)n2-c1c(F)cccc1F.O=C(O)C(F)(F)F (stereo not drawn) 100

---

- Test system: Plasmodium falciparum
- method_summary: GSK_TCMDC: Inhibition of Plasmodium falciparum Dd2 in whole red blood cells, using parasite LDH activity as an index of growth. Test compounds present at 2uM
- Assay type: functional
Kindly state Inhibition for each of the entries shown.
Record the value in %, omitting the unit from your answer.

Recorded Inhibition for `COc1ccc2nc(C)cc(NC3Cc4ccccc4C3)c2c1.Cl` , please? 13

Also `COc1cccc(NC(=O)c2ccc(NCCCN3CCC(C)CC3)c([N+](=O)[O-])c2)c1` ? 46

// query: `CC(=O)Nc1ccc(S(=O)(=O)N2CCN(c3nc(NC4CCCC4)c4ccccc4n3)CC2)cc1` 2

---

- System: HepG2
- method_summary: GSK_TCMDC: Percent inhibition of human HepG2 cell line. Test compounds present at 10uM.
- Type: functional
parameter: Inhibition (%)
Lab book: enter the figure in %, no units written.

State the recorded Inhibition for this entry: `CCc1ccccc1N1CCN(CCCC(=O)c2ccc(NC(=O)c3ccc(Cl)cc3)cc2)CC1` 17

Cool, now `O=c1ccc(CNc2nc(NCCc3ccccc3)nc3ccc(Cl)cc23)c[nH]1` 9

How about this molecule: `COCn1ccc2c3c(N)nc(N)nc3ccc21` 63

Lookup N=C1NC(=N)N(OCCCCCCON2C(=N)NC(=N)NC2C=Cc2ccccc2)C(C=Cc2ccccc2)N1 (stereo unspecified) 17

Next: `CCCCn1c(Sc2ccc(C#N)c([N+](=O)[O-])c2)nnc1-c1ccc(OC)cc1` 12

Field entry: `CN(C)CCCNCc1ccc(-c2ccc(CNCCOc3ccccc3)cc2)cc1.O=C(O)C(F)(F)F` 27

Could you do the same for `Cc1[nH]c(C)c(-c2ccc(-c3ccccc3F)nc2)c(=O)c1Cl` , please? 7

What would you report for CC(Cc1ccc(OCCCCOc2ccccc2)cc1)NCCc1ccc(Oc2ccccc2)cc1 (stereo unspecified) ? 99

Same question for `Cc1cc(C)n(-c2nc(Nc3cccc(C(F)(F)F)c3)nc(-n3nc(C)cc3C)n2)n1` please. 0

Likewise for `Cc1cccc2nc(-c3cccc(-c4ccc(NC(=O)c5cnccc5C(F)(F)F)cc4)c3)[nH]c12` ? 60

What do we get for `Cc1cccc2nc(-c3ccc(-c4cccc(NC(=O)Nc5ccsc5)c4)cc3)[nH]c12` ? 24

Another molecule to look at: `O=C(O)C(F)(F)F.c1cc(-c2ccc(CN3CCN(c4ccncc4)CC3)cc2)cc(-c2nc3ccccc3[nH]2)c1` 61

`CCOc1ccc(C(=O)Nc2nonc2-c2ccc(OC)c(OC)c2)cc1` , same question. 7

Also need CCC[C@@H](C(=O)NCCc1cccc(OC)c1)N1C(=O)c2c(ccc(OC)c2OC)C1C(=O)Nc1c(C)cccc1C (stereo partly specified) , thanks. 6

// next record `Cc1ccc(Nc2nc(N/N=C/c3cccc([N+](=O)[O-])c3)nc(Nc3ccccc3)n2)c(C)c1` 9

Follow-up entry: `CN=C(NC)c1cccc(NC(=O)C=Cc2ccc(C=CC(=O)Nc3cccc(C(=NC)NC)c3)cc2)c1.Cl` 21

For `Cc1nc2nc(N)nc(N)c2c(C)c1Cc1cccc(F)c1.Cl` then? 65

Moving on to the next molecule: `CCOc1cccc(C(=O)Nc2cccc(CN3CCCN(Cc4ccc(O)cc4)CC3)c2)c1.O=C(O)C(F)(F)F` 23

// repeat for `CC[C@H](C)CNC(=O)c1cncc(-c2cccc(CNC3Cc4ccccc4C3)c2)c1.O=C(O)C(F)(F)F` and report 5

Follow-up entry: `CC(C)COc1ccc(Cl)cc1Cc1ccc(-c2nc3cnc4ccccc4c3[nH]2)o1` 21

Entry CC(CN(C)C)C(=O)Nc1ccc(-c2cccc(-c3nc4cc(C(F)(F)F)ccc4[nH]3)c2)cc1 (stereo unspecified) please 30
